# Tested on: MS2 coat protein
# test.summary: apparent KD of MS2 coat protein; designed switch direction (-1 OFF switch, 1 ON switch): -1; higher = weaker reporter binding
# experimental.setup: Eterna round: R95; input ligand: microRNA oligo, concentration not stated
Mark not met for apparent KD of MS2 coat protein values under 60 nM, and met for everything at or above.

Here are 4 sequences together with their reported answers.
chain	classification
AGUAACUAUCACGAAAGUGAUAGUUACAAAACAAGUGAAACAUGAGGAUCACCCAUGUCCUCAUUUGCUCGUCUUAU [Sensor 3 - 2] (puzzle: Sensor v3, turn-off variant 2)	met
GAUCAACAUGAGGAUCACCCAUGUGAGGAUAUGAUACUAUGUACUUCGGUACAUAGUAUCAGAAGGCACUAGGA [Ex1-3: 40] (puzzle: Exclusion 1)	met
AGGUGACAUGAGGAUCACCCAUGUAAGGAUAUACGGUUAGUGGAGAGAGGGAAAAGAGGUAGAAGGUACGGAGC [JR_Exclu1_Sub057] (puzzle: Exclusion 1)	met
GCGUGACAUGAGGAUCACCCAUGUGAGGAUAUCUGGAUAAUUUUUAUUUUAGAUAUCCAGAGAAGGCACAUGCU [Ex1-3: 2Z] (puzzle: Exclusion 1)	met

Next sequence, please.
Query: Given UUUUUGUGAGGAUAUCAGUAGUAGAACAAUAGUACUACUACUGAGAAGGCACAUGAGGAUCACCCAUGUUCCUU [Fiskers Ex 4 Super stable 44 mod 12] (puzzle: Exclusion 4) , state whether its apparent KD of MS2 coat protein is at least 60 nM.
Reply: not met
